So I've got a bunch of binders here, and I need their kon values.
# Tested System: T1, human VEGF (human, UniProt P15692 207-395, biotinylated (site not stated))
# T1 construct: Biotinylated human VEGF generated internally; also called hVEGF; hVEGF-biotin
# T1 sequence: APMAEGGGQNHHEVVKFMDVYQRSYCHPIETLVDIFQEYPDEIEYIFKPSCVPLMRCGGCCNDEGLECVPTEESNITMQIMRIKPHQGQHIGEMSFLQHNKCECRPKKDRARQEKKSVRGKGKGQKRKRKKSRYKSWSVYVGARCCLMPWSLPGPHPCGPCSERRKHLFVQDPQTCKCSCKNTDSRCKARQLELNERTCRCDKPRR
# Assay Explanation: Biacore SPR, hVEGF

Task item: What value of kon has been recorded for this entry: HC4T (Fab, V domains shown, Tagged heavy chain CDR variant HC4 with NVS4 light chain) VH: EVQLVESGGGLVQPGGSLRLSCTASGFSLTNYYYMTWVRQAPGKGLEWVGFIDPQNDPYYATWAKGRFTISRDNSKNTLYLQMNSLRAEDTAVYYCAGGNHNSGWGLNIWGQGTLVTVSS VL: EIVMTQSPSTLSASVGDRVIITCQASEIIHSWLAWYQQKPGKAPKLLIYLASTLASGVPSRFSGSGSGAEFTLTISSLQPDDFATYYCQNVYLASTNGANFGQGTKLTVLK
Reply: 9.18e+07 M⁻¹ s⁻¹

Task item: What value of kon has been recorded for this entry: NVS4 heavy chain variant D100N + H101K (Fab, V domains shown, CDR variant of NVS4) VH: EVQLVESGGGLVQPGGSLRLSCTASGFSLTDYYYMTWVRQAPGKGLEWVGFIDPDDDPYYATWAKGRFTISRDNSKNTLYLQMNSLRAEDTAVYYCAGGNKNSGWGLDIWGQGTLVTVSS VL: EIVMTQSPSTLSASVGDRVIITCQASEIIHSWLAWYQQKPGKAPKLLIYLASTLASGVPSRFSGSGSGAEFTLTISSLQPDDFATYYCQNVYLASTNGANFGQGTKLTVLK
Reply: 983000 M⁻¹ s⁻¹

Where do the numbers come from? From patent US20170290876A1.
